Item-by-item account of AC50 cell viability
# Test system: HCT116
# procedure_text: AC50 cell viability (CellTiter-Glo); higher = less potent
# condition_summary: 48 h
State the value, then name its unit.

Known results for compounds:
**Query** Sample CCc1ccc2nc(Nc3cc(Cc4ccccc4)nc(N[C@H]4CC[C@H](O)CC4)n3)sc2c1 — what was its AC50 cell viability?
**Result** 18.6 µM

**Query** Entry under review: O=c1[nH]c2ccccc2n1CCCN1CCC(n2c(=O)[nH]c3cc(Cl)ccc32)CC1 . Reported AC50 cell viability?
**Result** 18.6 µM

---
**Query** Need AC50 cell viability, item CNc1nccc(-c2cccnc2Oc2cc(C(=O)Nc3cccc(C(F)(F)F)c3)ccc2C)n1
**Result** 1.66 µM

**Query** Can you share its AC50 cell viability? I mean this compound: CON(C)C(=O)N1/N=C(S[C@@]1(CCCN)C2=CC=CC=C2)/C3=CC(=CC=C3F)F
**Result** 20.9 µM

**Query** Please report the recorded AC50 cell viability for O=C(NC1CC1)c1cccc(-c2ccc3c(NC(=O)C4CC4)n[nH]c3c2)c1 .
**Result** 9.34 µM

**Query** What does the record list as AC50 cell viability for CN(C)Cc1ccc(-c2nc3cccc4c3n2CCNC4=O)cc1 ?
**Result** 5.9 µM

**Query** Reported AC50 cell viability for Cc1ccc(NC(=O)c2ccc(CN3CCNCC3)cc2)cc1Nc1nccc(-c2cccnc2)n1 : what is it?
**Result** 18.6 µM

**Query** Consider the compound shown here: CCN1C(=O)\C(=C/C2=CN=C(NC3=CC=C(C=C3)N4CCN(C)CC4)N=C12)C5=C(Cl)C=C(C=C5)C6=CN=CS6 What is its recorded AC50 cell viability?
**Result** 5.9 µM

----------
Let's look at some compounds and their measured log10 of AC50 cell viability.
# System: HCT116;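 also: HCT116 colorectal carcinoma cells screened at five concentrations per compound, luminescent viability scaled between DMSO wells and empty wells on each plate, curves fitted per compound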
# procedure_text: AC50 cell viability (CellTiter-Glo); higher = less potent
# condition_summary: 48 h
Remember, log10 of AC50 cell viability, in µM.

Reference set, count: 3
**Query** What does the record list as log10 of AC50 cell viability for O=C(Nc1ccc(OC(F)(F)F)cc1)c1sccc1NCc1ccnc2ccccc12 [OSI-930] ?
**Result** 1.02

**Query** Which measured log10 of AC50 cell viability value corresponds to Cc1nc(NC(=O)N2CCC[C@H]2C(N)=O)sc1-c1ccnc(C(C)(C)C(F)(F)F)c1 [Alpelisib] ?
**Result** 1.17

**Query** What does the record list as log10 of AC50 cell viability for COCCCOc1ccnc(CS(=O)c2nc3ccccc3[n-]2)c1C.[Na+] (configuration not stated) [Rabeprazole] ?
**Result** 1.22

More entries:
**Query** Suppose we examine the compound c1nc2c(NC3CCCCC3)nc(Nc3ccc(N4CCOCC4)cc3)nc2[nH]1 [Reversine] ; what log10 of AC50 cell viability value has been reported?
**Result** 0.82

**Query** Return reported log10 of AC50 cell viability; argument: CC(C)c1ccc(Cn2ccc3c4c(N)nc(NC5CC5)nc4ccc32)cc1
**Result** -0.48

**Query** Would you mind telling me what log10 of AC50 cell viability value was observed for Oc1ccc(-c2nc(-c3ccncc3)c(-c3ccc(F)cc3)[nH]2)cc1 ?
**Result** 1.37

**Query** Which log10 of AC50 cell viability is reported for this compound? COc1ccccc1N1CCN(CCN(C(=O)C2CCCCC2)c2ccccn2)CC1
**Result** 1.12

**Query** Look up log10 of AC50 cell viability for this compound: C[C@@H](Nc1cc(F)cc(F)c1)c1cc(C(=O)N(C)C)cc2c(=O)cc(N3CCOCC3)oc12 [AZD-8186]
**Result** 1.02

**Query** I would be grateful if you could share the reported log10 of AC50 cell viability for COc1cc(N2CCN(C)CC2)ccc1Nc1ncc2c(n1)N(C)c1ccccc1C(=O)N2C [XMD17-109 (ERK5-IN-1)] .
**Result** 0.97

**Query** Which measured log10 of AC50 cell viability value corresponds to CC(C)(C)C(=O)OCOP(=O)(COCCn1cnc2c(N)ncnc21)OCOC(=O)C(C)(C)C [Adefovir dipivoxil] ?
**Result** 0.52

**Query** What does the data say about its log10 of AC50 cell viability? Entry: CC[C@@H](C)Nc1cc(C(=O)NC2CC3CCC(C2)N3c2ccc(C(=O)C3CC3)cn2)c(C)cc1C(N)=O (some centres not stated) [XL-888]
**Result** -0.93

**Query** Could you tell me which log10 of AC50 cell viability is on file for CC(C)(C)NC(=O)c1cncn1C1CCN(c2ccc(-c3nnc(C(F)(F)F)o3)cn2)CC1 [WNK-463] ?
**Result** 0.57

**Query** Name the recorded log10 of AC50 cell viability for COc1cc2c(Oc3ccc4[nH]c(C)cc4c3F)ccnc2cc1OCC1(N)CC1 [Anlotinib] .
**Result** 1.22

**Query** Need log10 of AC50 cell viability of Cc1cc2c(F)c(Oc3ncnn4cc(OC[C@@H](C)O)c(C)c34)ccc2[nH]1 [Brivanib] , thanks.
**Result** 0.97

**Query** For C[C@H]1CNC(=O)c2cnn3ccc(nc23)N[C@H](C)c2cc(F)ccc2O1 [TPX-0005] , what is its reported log10 of AC50 cell viability?
**Result** 0.37

**Query** Dear colleague, I am looking for the recorded log10 of AC50 cell viability of the following compound: Clc1cc(Cl)cc(CNc2ncncc2-c2ccc3c(c2)OCO3)c1
**Result** 1.12

**Query** I would be grateful if you could share the reported log10 of AC50 cell viability for CCC[S+](=O)([O-])Nc1ccc(F)c(C(=O)c2c[nH]c3ncc(Cl)cc23)c1F [PLX-4720] .
**Result** 1.22

**Query** Which value of log10 of AC50 cell viability has been reported for CCCCOc1c(C(=O)c2c(F)cc(C)cc2F)cnc2[nH]ncc12 in the records?
**Result** 0.12

**Query** Consider the compound O=C1c2cccc(O)c2C(=O)c2c(O)cc(CO)cc21 [Aloe-emodin] and give its measured log10 of AC50 cell viability.
**Result** 1.07

**Query** State the recorded log10 of AC50 cell viability for this entry: O=C(Nc1cnccc1Cl)N1CCN(Cc2ccc3c(c2)OC(F)(F)O3)CC1
**Result** 1.17

**Query** What measured log10 of AC50 cell viability goes with O=C(Nc1cccc(Br)c1)c1cccc([S+](=O)([O-])N2CCCCCC2)c1 [Ak-7] ?
**Result** 1.17

**Query** Data request, read-out log10 of AC50 cell viability, for COc1cc(N2CCC(N3CCN(C)CC3)CC2)ccc1Nc1ncc(Cl)c(Nc2ccccc2P(C)(C)=O)n1 [Brigatinib]
**Result** -0.28

**Query** Recorded log10 of AC50 cell viability of CNC(=O)c1nn(C)c2c1C(C)(C)Cc1cnc(Nc3ccc(N4CCN(C)CC4)cc3)nc1-2 [Milciclib] , please.
**Result** -0.28
